Test system: HaCat
Assay: Cytotoxic Profiling of Annotated Libraries Using Quantitative High-Throughput Screening (AID 1296008); note: % is set by controls: 0 for no effect and ±100 for the full control effect; nearly all actives have a fitted effect of over 60% in size
Conditions: Five cell lines viability, CellTiter-Glo ATP luminescence, 48-72 h; active compounds read low
Records with an inconclusive call do not appear.
Reported values of max response for individual entries
Report the figure in % without appending any unit label.

Give its max response value. Item: `C=C1CCN([C@H](C)[C@](O)(Cn2cncn2)c2ccc(F)cc2F)CC1`
-11.9

Need max response of `Cc1ccc(C)c(-c2cc(C(F)(F)F)nn2-c2ccc(S(N)(=O)=O)cc2)c1` , thanks.
3.66

Give the measured max response of `COc1cc2c(cc1OCCCN1CCCC1)N=C(N)C21CCC1` .
2.83

Next:
Which max response is reported for this molecule? `O=C1COc2nccc(-c3ccccc3F)c2CN1Cc1cc(C(F)(F)F)cc(C(F)(F)F)c1`
-0.797

Look up max response for this molecule: `CCCCCc1ccc(/C=C/C(=O)Nc2cc(Cl)ccc2C(=O)O)cc1`
-35.2

Sample `CC(C)(C)c1ccc(C(=O)Nc2cc(Cl)c(Br)cc2C(=O)O)cc1` — what was its max response?
-1.9

Param item = `O=C(NCCO)c1cccc(-c2cc(Nc3ccc(OC(F)(F)F)cc3)ncn2)c1` ; retrieve measured max response.
-14.2

Suppose we examine the molecule `CCCCc1ccc(NS(=O)(=O)c2ccc(F)cc2)cc1` ; what max response value has been reported?
-1.98

What does the data say about its max response? Entry: `CC(=O)N1CCN(CCOc2ccc(C3CCN(C4=Nn5c(nnc5C(F)(F)F)CC4)CC3)cc2)CC1`
-1.46

Requested read-out: max response. Entry: CC(=O)C1(C)CCC2C3C=C(C)C4=CC(=O)CCC4(C)C3CCC21C (stereo not given)
-54.8

Fill blank: measured max response of the molecule `COc1cc(C(C)=O)c(OC)c2c1OC(C)(C)C=C2` is ____.
-6.75

Find the recorded max response belonging to `O=C(NS(=O)(=O)c1ccc(Br)s1)c1ccc(Cl)cc1Cl` and report it.
3.71

Looking for the measured max response of `Cc1nc2c(C(F)(F)F)cccc2nc1-c1ccc(-c2cccc(S(C)(=O)=O)c2)cc1` , can you help?
-0.882

State the recorded max response for this entry: `COc1ccc(OC)c(-c2ccc(NC(=O)c3ccncc3F)cc2)c1`
-19.1

Entry CC1CC(=O)C2=C(C1)C1OC1C1(O)C2C(=O)c2cccc(O)c2C1O (stereo not given) : reported max response = ?
-53.4

# input molecule: `Fc1ccc(-c2nc(-c3c(F)cccc3F)[nH]c2-c2ccncc2)cc1` ; wanted: its max response
-17.9

So what's the measured max response for this one? `CN(C)S(=O)(=O)c1ccc(NC(=S)N2CCC(C(O)(c3ccccc3)c3ccccc3)CC2)cc1`
3.08

Which max response reading was recorded for the molecule `CN[C@@H]1[C@H](O[C@H]2[C@H](O[C@@H]3[C@@H](O)[C@H](O)[C@@H](N=C(N)N)[C@H](O)[C@H]3N=C(N)N)O[C@@H](C)[C@]2(O)CO)O[C@@H](CO)[C@H](O)[C@H]1O` ?
-0.834

Can you look up the measured max response of `COc1cc(-c2nc(N[C@H](CO)Cc3ccccc3)ccc2C(=O)NCCOc2ccccc2)cc(OC)c1OC` for me?
-1.78

Data request, read-out max response, for CC1CCC(=O)CC(SCC(O)C(=O)O)CCC(=O)O1 (stereo not given)
-8.22
